Tested on: chickweed (common chickweed, Stellaria media)
Assay: Test D postemergence plant response
Assay type: in vivo
Details: 31 g ai/ha, scale 0 to 100 (0 no effect, 100 complete control)
The entries below come with measured Chickweed plant response rating values attached.

[
  {
    "Chemical String": "Fc1ccc(Oc2ncc(Cl)cn2)c(-c2cc(C(F)F)on2)c1F",
    "Chickweed plant response rating": 85
  },
  {
    "Chemical String": "FC(F)(F)c1cc(-c2ccccc2Oc2ncc(Cl)cn2)ncn1",
    "Chickweed plant response rating": 5
  },
  {
    "Chemical String": "FC(Cl)(Cl)c1cc(-c2ccccc2Oc2ncc(Cl)cn2)no1",
    "Chickweed plant response rating": 60
  },
  {
    "Chemical String": "Cc1cc(-c2ccccc2Oc2ncc(Cl)cn2)no1",
    "Chickweed plant response rating": 20
  },
  {
    "Chemical String": "FCc1cc(-c2c(Br)cccc2Oc2ncc(Cl)cn2)no1",
    "Chickweed plant response rating": 55
  },
  {
    "Chemical String": "FC(F)c1cc(-c2c(Cl)cccc2Oc2ncc(Cl)cn2)on1",
    "Chickweed plant response rating": 100
  },
  {
    "Chemical String": "FC(F)c1cc(-c2c(Cl)cccc2Oc2ncc(Cl)cn2)no1",
    "Chickweed plant response rating": 80
  },
  {
    "Chemical String": "CC(F)(F)c1cc(-c2ccccc2Oc2ncc(Cl)cn2)on1",
    "Chickweed plant response rating": 50
  }
]

====

Tested on: morningglory (Ipomoea coccinea)
Assay: Test D pre-/postemergence plant response
Type: in vivo
Conditions: Preemergence, 125 g ai/ha
Property Label: Plant response rating (scale 0 to 100), Morningglory

[
  {
    "Chemical String": "FC(F)(F)c1cc(-c2ccccc2Oc2ncc(Cl)cn2)ncn1",
    "Recorded Value": 15
  },
  {
    "Chemical String": "FCc1cc(-c2c(F)cccc2Oc2ncc(Cl)cn2)no1",
    "Recorded Value": 45
  },
  {
    "Chemical String": "Cc1cc(-c2ccccc2Oc2ncc(Cl)cn2)on1",
    "Recorded Value": 45
  },
  {
    "Chemical String": "Cc1cc(-c2ccccc2Oc2ncc(Cl)cn2)no1",
    "Recorded Value": 20
  },
  {
    "Chemical String": "Clc1cnc(Oc2ccccc2-c2cc(C3CC3)on2)nc1",
    "Recorded Value": 40
  }
]

====

System: wild oat (Avena fatua)
Assay: Test D postemergence plant response
Type: in vivo
Conditions: 31 g ai/ha, scale 0 to 100 (0 no effect, 100 complete control)
The entries below come with measured Oat, Wild plant response rating values attached.
Property Label: Oat, Wild plant response rating

[
  {
    "Chemical String": "CC(F)(F)c1cc(-c2ccccc2Oc2ncc(Br)cn2)no1",
    "Property Label": "Oat, Wild plant response rating",
    "Recorded Value": 0
  },
  {
    "Chemical String": "FC(F)c1cc(-c2c(Cl)cccc2Oc2ncc(Cl)cn2)on1",
    "Property Label": "Oat, Wild plant response rating",
    "Recorded Value": 40
  },
  {
    "Chemical String": "Cc1cc(-c2ccccc2Oc2ncc(Cl)cn2)no1",
    "Property Label": "Oat, Wild plant response rating",
    "Recorded Value": 0
  },
  {
    "Chemical String": "FC(F)(F)c1cc(-c2c(Br)cccc2Oc2ncc(Cl)cn2)no1",
    "Property Label": "Oat, Wild plant response rating",
    "Recorded Value": 5
  },
  {
    "Chemical String": "Fc1cccc(Oc2ncc(Cl)cn2)c1-c1cc(C2CC2)on1",
    "Property Label": "Oat, Wild plant response rating",
    "Recorded Value": 15
  },
  {
    "Chemical String": "FC(F)(F)c1cc(-c2c(Cl)cccc2Oc2ncc(Cl)cn2)no1",
    "Property Label": "Oat, Wild plant response rating",
    "Recorded Value": 5
  },
  {
    "Chemical String": "Fc1ccc(Oc2ncc(Cl)cn2)c(-c2cc(C(F)F)on2)c1F",
    "Property Label": "Oat, Wild plant response rating",
    "Recorded Value": 15
  },
  {
    "Chemical String": "Clc1cnc(Oc2ccccc2-c2cc(C3CC3)on2)nc1",
    "Property Label": "Oat, Wild plant response rating",
    "Recorded Value": 5
  },
  {
    "Chemical String": "Clc1cnc(Oc2ccccc2-c2cc(Cl)sn2)nc1",
    "Property Label": "Oat, Wild plant response rating",
    "Recorded Value": 0
  },
  {
    "Chemical String": "N#Cc1cccc(Oc2ncc(Cl)cn2)c1-c1cc(C(F)F)on1",
    "Property Label": "Oat, Wild plant response rating",
    "Recorded Value": 5
  }
]
